// data source = PubChem BioAssay (NCI)

- System: SR leukemia
- protocol.summary: NCI tumour cell line growth inhibition, 48 h
Property: TGI; scope: individual compounds

Example entries and their recorded answers appear below.
{"columns": ["molecule", "TGI"],
 "data": [
  ["CN(C)CCCNC(=O)c1cc(NC(=O)c2cc(NC(=O)[C@H]3C[C@@H]3C(=O)Nc3cc(C(=O)Nc4cc(C(=O)NCCCN(C)C)n(C)c4)n(C)c3)cn2C)cn1C", "> 100 µM"],
  ["Oc1ccc2ccccc2c1C(c1ccc(Cl)cc1)c1c(O)ccc2ccccc12", "> 25.7 µM"],
  ["Cc1[nH]n(-c2ccc(S(=O)(=O)O)cc2)c(=O)c1N=Nc1ccccc1", "> 100 µM"]
]}

We now examine a further compound.
For the compound `O=c1c2ccccc2c2c1c1c3ccccc3c(=O)c1c1c3ccccc3c(=O)c21` , what TGI is on record? > 100 µM

====

- System: MDA-MB-231 breast
- protocol.summary: NCI tumour cell line growth inhibition, 48 h
Some molecules, each annotated with its measured TGI.

{"columns": ["molecule", "measured.result"],
 "data": [
  ["O=NNc1cnccn1", "> 1250 µM"],
  ["O=Cc1[nH]c(=O)[nH]c(=O)c1CCl", "> 100 µM"],
  ["C/C1=C\\CC[C@@]2(C)O[C@@H]2C[C@@H]2[C@H](C/C(C)=C/CC1)OC(=O)C21CCN=N1 (some centres undefined)", "> 100 µM"]
]}

TGI lookup needed for `c1cc2cc(c1)CN1CCNCCN(CCNCC1)Cc1cccc(c1)CN1CCNCCN(CCNCC1)C2` , thanks. > 100 µM

====

- System: HT29 colon
- protocol.summary: NCI tumour cell line growth inhibition, 48 h
# key: entry, value: GI50

Solved cases (2 shown):
{"columns": ["molecule", "GI50"],
 "data": [
  ["O=C(NCC(=O)N1CC[C@H](NC2CCC(O)(c3ccc(-c4ncccn4)cn3)CC2)C1)c1cccc(C(F)(F)F)c1 (stereo partly drawn)", "53 µM"],
  ["C/C1=C\\CC[C@@]2(C)O[C@@H]2C[C@@H]2[C@H](C/C(C)=C/CC1)OC(=O)C21CCN=N1 (stereo partly drawn)", "> 100 µM"]
]}

# next molecule below
What measured GI50 goes with `O=C1Nc2ccccc2/C1=C/c1cn(C(=O)c2c(Cl)cccc2Cl)c2ccccc12` ? 3.92 µM

====

List of TGI values.
- Tested on: HOP-92 NSCLC
- protocol.summary: NCI tumour cell line growth inhibition, 48 h
Just the number in µM, nothing appended.

{"columns": ["molecule", "target", "measurement.units", "TGI"],
 "data": [
  ["O=C1c2ccccc2C(=O)c2c1oc(=O)c1ccccc21", "HOP-92 NSCLC", "µM", 11.9],
  ["O=C(Nc1ccccc1)Nn1c(-c2cccs2)nc2ccc(I)cc2c1=O", "HOP-92 NSCLC", "µM", 59.7]
]}

// next entry
Entry `CCn1c(-c2ccccc2)nc2c1C(=O)c1ccccc1C2=O` has what TGI? 82

====

- Tested on: CAKI-1 renal
- protocol.summary: NCI tumour cell line growth inhibition, 48 h
readout.name: TGI

Param item = `O=c1c[n+](-c2ccccc2)[nH]o1` ; retrieve measured TGI. > 100 µM

Please look up its TGI: O=C1OC2c3ccccc3C(=O)C2(c2ccccc2)N1c1ccccc1 (stereo not drawn) > 200 µM

What value of measured TGI is listed for CC(=O)NC(CCCCNC(=O)OC(C)(C)C)C(=O)O (stereo not drawn) ? > 100 µM
